- Tested on: MOLT-4 leukemia
- test.summary: NCI tumour cell line growth inhibition, 48 h
measured.property: TGI

{"compound": "COc1cc(/C=C2\\C(=O)Nc3cc(C)c(O)cc32)cc(OC)c1OC", "target.of.assay": "MOLT-4 leukemia", "observed.measurement": "16.7 µM"}
{"compound": "COc1ccc2nc3c([N+](=O)[O-])ccc4c3c(c2c1)NCCN4CCO", "target.of.assay": "MOLT-4 leukemia", "observed.measurement": "0.806 µM"}
{"compound": "Cn1cc(C2=C(c3cn(CCCCN)c4ccccc34)C(=O)NC2=O)c2ccccc21", "target.of.assay": "MOLT-4 leukemia", "observed.measurement": "> 25 µM"}
{"compound": "CCc1cccc(C)c1NC(=O)c1sc2nc3c(cc2c1N)CCCCC3", "target.of.assay": "MOLT-4 leukemia", "observed.measurement": "> 100 µM"}
{"compound": "Nc1nc(Cl)c(N)c(NCC2(CO)CC(OCc3ccccc3)C2)n1 (stereo not given)", "target.of.assay": "MOLT-4 leukemia", "observed.measurement": "> 100 µM"}
{"compound": "COC(=O)CCC(=O)NC1=C(NCc2ccccc2)C(=O)c2ccccc2C1=O", "target.of.assay": "MOLT-4 leukemia", "observed.measurement": "> 100 µM"}
{"compound": "FC(F)c1nc2ccccc2n1-c1nc(N2CCOCC2)nc(N2CCOCC2)n1", "target.of.assay": "MOLT-4 leukemia", "observed.measurement": "> 100 µM"}
{"compound": "COc1ccc2nc3ccc(OC)cc3c(SCCO)c2c1", "target.of.assay": "MOLT-4 leukemia", "observed.measurement": "> 30.3 µM"}
{"compound": "Cc1ccc(S(=O)(=O)NC(=O)C2C(=O)CC3(CCCCC3)CC2=O)cc1", "target.of.assay": "MOLT-4 leukemia", "observed.measurement": "> 100 µM"}
{"compound": "CC[C@H](O)[C@H](C)C=C1SCCCS1", "target.of.assay": "MOLT-4 leukemia", "observed.measurement": "> 100 µM"}
{"compound": "C=C1C(=O)O[C@H]2[C@H]1CC/C(COC(=O)CSCCSCC(=O)OC/C1=C/CC[C@@]3(C)O[C@H]3[C@H]3OC(=O)C(=C)[C@@H]3CC1)=C\\CC[C@@]1(C)O[C@@H]21", "target.of.assay": "MOLT-4 leukemia", "observed.measurement": "3.89 µM"}
{"compound": "CN(C)CC(C)(C)/C(=N\\Nc1ccccc1)c1ccccc1", "target.of.assay": "MOLT-4 leukemia", "observed.measurement": "> 100 µM"}
{"compound": "COC(=O)[C@]1(c2cc3ccccc3n2S(=O)(=O)c2ccccc2)CC2CN(C(C)=O)C1CC2=O (stereo not given in full)", "target.of.assay": "MOLT-4 leukemia", "observed.measurement": "4.85 µM"}
{"compound": "CCC12CCCN(Cc3ccccc3)C1c1c([nH]c3ccccc13)C(C(=O)OC)C2 (stereo not given)", "target.of.assay": "MOLT-4 leukemia", "observed.measurement": "> 10 µM"}
{"compound": "Cc1nc(C)c(C(=O)NNC(N)=S)cc1C(=O)NNC(N)=S", "target.of.assay": "MOLT-4 leukemia", "observed.measurement": "> 100 µM"}

----------
- System: SR leukemia
- test.summary: NCI tumour cell line growth inhibition, 48 h
Where a SMILES comes first, the peptide text is derived from it. The star is where a group is joined. Boc = CC(C)(C)OC(=O)*
measured.property: TGI

{"compound": "N#CCc1n[nH]c(Cc2ccccc2)n1", "observed.measurement": "> 100 µM"}
{"compound": "Nc1nc(Cl)c(N)c(NCC2(CO)CC(OCc3ccccc3)C2)n1 (centres undefined)", "observed.measurement": "> 100 µM"}
{"compound": "CCCN(CCCC(NC(C)=O)C(=O)NCc1ccccc1)C(=O)N(CCCl)N=O (centres undefined)", "observed.measurement": "17.5 µM"}
{"compound": "CCCSc1ccc2[nH]c(N3C(=O)/C(=C/c4ccco4)N=C3c3ccccc3)cc2c1", "observed.measurement": "> 50 µM"}
{"compound": "COC(=O)NCCc1[nH]nc2c1C(=O)C=C(N1CCOCC1)C2=O", "observed.measurement": "> 100 µM"}
{"compound": "CC(C)(C)N=NNc1cn(C2OC(CO)C(O)C2O)c(=O)[nH]c1=O (centres undefined)", "observed.measurement": "50.8 µM"}
{"compound": "O=C(CO[N+](=O)[O-])Nc1ccc(C(=O)/C=C/c2ccc(Cl)cc2)cc1", "observed.measurement": "> 100 µM"}
{"compound": "CC(=O)OCC1OC(n2c(-c3ccc(Cl)cc3)ccc(C#N)c2=S)C(OC(C)=O)C(OC(C)=O)C1OC(C)=O (centres undefined)", "observed.measurement": "> 100 µM"}
{"compound": "NC(CCCC(N)P(=O)(O)c1ccccc1)P(=O)(O)c1ccccc1 (centres undefined)", "observed.measurement": "> 261 µM"}
{"compound": "C=C(c1ccc2nc(NC(=O)OC)[nH]c2c1)c1cccs1", "observed.measurement": "1.11 µM"}
{"compound": "C[C@]12CC[C@H]3[C@@H](CC=C4C[C@@H](N5CCCC5)CC[C@@]43C)[C@@H]1C[C@H](N1CCOCC1)[C@@H]2O", "observed.measurement": "71.5 µM"}
{"compound": "COc1ccc2c(CCN)c(C(=O)O)[nH]c2c1", "observed.measurement": "> 43.7 µM"}
{"compound": "Cc1c(Cl)c2ccccc2n1S(=O)(=O)c1ccccc1", "observed.measurement": "> 100 µM"}
{"compound": "COC(=O)[C@]1(c2cc3ccccc3n2S(=O)(=O)c2ccccc2)CC2CN(C(C)=O)C1CC2=O (some centres undefined)", "observed.measurement": "5.12 µM"}
{"compound": "CN(C)c1ccc(C(=C(c2ccc(N(C)C)cc2)c2ccc(N(C)C)cc2)c2ccc(N(C)C)cc2)cc1", "observed.measurement": "30.8 µM"}
{"compound": "O=S(=O)(O)c1cc(O)c2c(N=Cc3ccccc3O)cc(S(=O)(=O)O)cc2c1", "observed.measurement": "> 100 µM"}
{"compound": "CCc1cc(Cc2cc(Cl)c(NC(=O)C(=O)C3NC(=O)NC3=O)c(CC)c2)cc(Cl)c1NC(=O)C(=O)C1NC(=O)NC1=O (centres undefined)", "observed.measurement": "> 100 µM"}
{"compound": "CC(C)OP(=O)(OC(C)C)/C(I)=N/Nc1ccc([N+](=O)[O-])cc1", "observed.measurement": "> 100 µM"}
{"compound": "COC(=O)C1=C(C(=O)OC)C(C(=O)c2ccc(Br)cc2)N2N=C(c3ccc(Cl)cc3)C=CC12 (centres undefined)", "observed.measurement": "> 100 µM"}
{"compound": "CC(C)/C(Cl)=N\\OC(=O)Nc1ccccc1F", "observed.measurement": "6.54 µM"}
{"compound": "COC(=O)C(Cc1c[nH]c2ccccc12)NC(=O)C(Cc1c[nH]c2ccccc12)NC(=O)C(Cc1c[nH]c2ccccc12)NC(=O)C(Cc1c[nH]c2ccccc12)NC(=O)C(Cc1c[nH]c2ccccc12)NC(=O)C(Cc1c[nH]c2ccccc12)NC(=O)OC(C)(C)C (centres undefined) (Boc-WWWWWW-OMe; configuration not given here)", "observed.measurement": "> 100 µM"}
{"compound": "C=C(C)C(=O)O[C@H]1C[C@@]23O[C@@H]2CCC(=C[C@H]2OC(=O)C(=C)[C@H]12)COC3O (some centres undefined)", "observed.measurement": "95.1 µM"}
{"compound": "Cc1[nH]c2c(c1C)S(=O)(=O)c1cc3ccccc3nc1N2", "observed.measurement": "> 100 µM"}
{"compound": "CC(C)CCC(=O)c1ccoc1", "observed.measurement": "> 100 µM"}
{"compound": "O=c1[nH]c(=O)n(C2OC(COP(=O)(O)OP(=O)(O)OC3OC(CO)C(O)C(O)C3O)C(O)C2O)cc1F (centres undefined)", "observed.measurement": "> 21.6 µM"}
{"compound": "Cc1cc(=O)oc2cc(OC(=O)N(C)C)c(Cl)cc12", "observed.measurement": "> 100 µM"}
{"compound": "O=[N+]([O-])C1CC/C(=N/O)c2nonc21 (centres undefined)", "observed.measurement": "> 10 µM"}
{"compound": "COc1ccc(/C=N/n2cnc3c(sc(=S)n3-c3ccccc3)c2=O)cc1", "observed.measurement": "> 100 µM"}
{"compound": "Cn1c(=O)c(C(=O)Nc2nc(C34CC5CC(CC(C5)C3)C4)cs2)c(O)c2ccccc21", "observed.measurement": "> 100 µM"}

----------
- Test system: U251 CNS
- test.summary: NCI tumour cell line growth inhibition, 48 h

{"compound": "COc1ccc(S(=O)(=O)N2CC(C)(C)CN(S(=O)(=O)c3ccc(OC)cc3)C2C(=O)NO)cc1", "TGI": "> 20 µM"}
{"compound": "CCOC(=O)C1N(S(=O)(=O)c2ccc(C)cc2)CCC12c1ccccc1N(C(C)=O)C2c1ccc(OC)c(OC)c1 (stereo not drawn)", "TGI": "> 100 µM"}
{"compound": "Nc1nc(SCc2ccc([N+](=O)[O-])cc2)nc2c1ncn2C1OC(COP(=O)(O)O)C(O)C1O (stereo not drawn)", "TGI": "> 100 µM"}

Value source: PubChem BioAssay (NCI)
